- System: MIWI (PIWIL1) piRISC loaded with L1MC piRNA (30 nt);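 note: 1 nM active piRISC with 0.1 nM target library at 33 °C single turnover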
- experimental-protocol: pre-steady-state target cleavage rate (min^-1); higher = faster piRNA-guided slicing of the target
- condition-parameters: guide: L1MC piRNA 5'p-UAACUAAAUACUAUGCAAGCUGUAGGUCCU; auxiliary factor: 500 nM mouse GTSF1
Over roughly 8,200 sequences, “pre-steady-state target cleavage rate” has its median near 0.024; the highest 2% begin near 1.3. The sample as a whole holds a higher share of the highest values than the screen did.
The reader will find reported pre-steady-state target cleavage rate values listed item by item below.
Returns: the value as a bare number; no unit string appended.

Q. Quick check: pre-steady-state target cleavage rate of UCCUGCUACAGCUUGCCUAGUAUUUAGUUA ?
A. 0.886

----------
- Test system: MIWI (PIWIL1) piRISC loaded with L1MC piRNA (30 nt);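 note: 1 nM active piRISC with 0.1 nM target library at 33 °C single turnover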
- experimental-protocol: pre-steady-state target cleavage rate (min^-1); higher = faster piRNA-guided slicing of the target
- condition-parameters: guide: L1MC piRNA 5'p-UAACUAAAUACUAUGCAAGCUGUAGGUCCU; auxiliary factor: none (no GTSF1)
In all, about 8,200 sequences were measured (“pre-steady-state target cleavage rate”: median about 0.024, highest 2% from about 1.3 on). Only a selection was taken, and the highest values are over-represented in it overall.
Binary call on pre-steady-state target cleavage rate: 1 from 0.04 upward, 0 beneath that.

>  <sequence-string>
UCCUGGUACACCUUGCAUAGUAAUUAGUUA

>  <tested-on>
MIWI (PIWIL1) piRISC loaded with L1MC piRNA (30 nt);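 note: 1 nM active piRISC with 0.1 nM target library at 33 °C single turnover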

>  <answer-label>
0

$$$$
>  <sequence-string>
UCCUGGAACAGCUUGCAUAGUUAUUAGUUA

>  <tested-on>
MIWI (PIWIL1) piRISC loaded with L1MC piRNA (30 nt);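 note: 1 nM active piRISC with 0.1 nM target library at 33 °C single turnover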

>  <answer-label>
0

$$$$
>  <sequence-string>
UCCACCUACAGCAUGCAUAGUAUUUAGAUA

>  <tested-on>
MIWI (PIWIL1) piRISC loaded with L1MC piRNA (30 nt);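 note: 1 nM active piRISC with 0.1 nM target library at 33 °C single turnover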

>  <answer-label>
0

$$$$
>  <sequence-string>
UCCUGGAUCAGCUUGAUAGUAUUUAGUUA

>  <tested-on>
MIWI (PIWIL1) piRISC loaded with L1MC piRNA (30 nt);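 note: 1 nM active piRISC with 0.1 nM target library at 33 °C single turnover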

>  <answer-label>
0

$$$$
>  <sequence-string>
UCGACCUACUGCUUGCAUACUAUUUAGUUA

>  <tested-on>
MIWI (PIWIL1) piRISC loaded with L1MC piRNA (30 nt);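 note: 1 nM active piRISC with 0.1 nM target library at 33 °C single turnover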

>  <answer-label>
0

$$$$
>  <sequence-string>
UGGACCAACAGCUUGCAUAGUAUUUAGAUA

>  <tested-on>
MIWI (PIWIL1) piRISC loaded with L1MC piRNA (30 nt);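 note: 1 nM active piRISC with 0.1 nM target library at 33 °C single turnover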

>  <answer-label>
1

$$$$
>  <sequence-string>
UCCUGGAAACAGCUUGCAUAGUAUUUAGUUA

>  <tested-on>
MIWI (PIWIL1) piRISC loaded with L1MC piRNA (30 nt);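 note: 1 nM active piRISC with 0.1 nM target library at 33 °C single turnover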

>  <answer-label>
1

$$$$
>  <sequence-string>
UCUACCUACAGCUUGCAUAGUAUUUAGUUA

>  <tested-on>
MIWI (PIWIL1) piRISC loaded with L1MC piRNA (30 nt);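 note: 1 nM active piRISC with 0.1 nM target library at 33 °C single turnover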

>  <answer-label>
1

$$$$
>  <sequence-string>
UGGACCAACAGCUUGCAUAGUAUUUAGUUA

>  <tested-on>
MIWI (PIWIL1) piRISC loaded with L1MC piRNA (30 nt);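 note: 1 nM active piRISC with 0.1 nM target library at 33 °C single turnover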

>  <answer-label>
1

$$$$
>  <sequence-string>
UGGACCUACAGCUUGGCAUAGUAUUUAGUUA

>  <tested-on>
MIWI (PIWIL1) piRISC loaded with L1MC piRNA (30 nt);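 note: 1 nM active piRISC with 0.1 nM target library at 33 °C single turnover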

>  <answer-label>
0

$$$$

Q. Identify whether the reported pre-steady-state target cleavage rate of the following sequence is 0.04 or greater: UCCUGGAUGUCGAAGGAUAGUAUUUUGUUA
A. 0

Q. Identify whether the reported pre-steady-state target cleavage rate of the following sequence is 0.04 or greater: UCCUGCUACUGCUUGCUUAGUAUUUAGUUA
A. 0

Q. Identify whether the reported pre-steady-state target cleavage rate of the following sequence is 0.04 or greater: AGGACCAACAGCUUGCAUAGUAUUUAGUUA
A. 1

Q. Identify whether the reported pre-steady-state target cleavage rate of the following sequence is 0.04 or greater: UCGACCUACAGCAUGCUUAGUAUUUAGUUA
A. 0

Q. Identify whether the reported pre-steady-state target cleavage rate of the following sequence is 0.04 or greater: UCCUGCAACAGCUUGCUUAGUAUUUAGUUA
A. 1

Q. Identify whether the reported pre-steady-state target cleavage rate of the following sequence is 0.04 or greater: UGGACCUACAGCUAGCAUAGUAUUUAGUUA
A. 0

Q. Identify whether the reported pre-steady-state target cleavage rate of the following sequence is 0.04 or greater: UCCUGCUACAGCUUGCUUAGUAUUUAGUAA
A. 0

Q. Identify whether the reported pre-steady-state target cleavage rate of the following sequence is 0.04 or greater: UCGACCUACAGCUUGCAUAGUAUUUAGAUA
A. 0

Q. Identify whether the reported pre-steady-state target cleavage rate of the following sequence is 0.04 or greater: UCGACCUACAGCUUGCAGAGUAUUUAGUUA
A. 0

Q. Identify whether the reported pre-steady-state target cleavage rate of the following sequence is 0.04 or greater: UCCACCUACAGCAUGCAUAGUAUUUAGUUA
A. 0

Q. Identify whether the reported pre-steady-state target cleavage rate of the following sequence is 0.04 or greater: UGGACCUACAGCUUGCAUAGUAUUUCAGUUA
A. 0

Q. Identify whether the reported pre-steady-state target cleavage rate of the following sequence is 0.04 or greater: UCCACCUACAGCUUGCUUAGUAUUUAGUAA
A. 0

----------
- Test system: MIWI (PIWIL1) piRISC loaded with L1MC piRNA (30 nt);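 note: 1 nM active piRISC with 0.1 nM target library at 33 °C single turnover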
- experimental-protocol: pre-steady-state target cleavage rate (min^-1); higher = faster piRNA-guided slicing of the target
- condition-parameters: guide: L1MC piRNA 5'p-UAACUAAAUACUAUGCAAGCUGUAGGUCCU; auxiliary factor: 500 nM mouse GTSF1
Over roughly 8,200 sequences, “pre-steady-state target cleavage rate” has its median near 0.024; the highest 2% begin near 1.3. For the sample, the highest values were picked, then their nearest neighbours and some sequences at random.
The reader will find reported pre-steady-state target cleavage rate values listed item by item below.
Returns: the value as a bare number; no unit string appended.

Example entries begin here.
>  <sequence-string>
UGGUCCUUCAGCUUGCAUAGUAUUUAGUUA

>  <observation-type>
pre-steady-state target cleavage rate

>  <recorded-result>
1.22

$$$$
>  <sequence-string>
UCCUCCUACAGCUUGCAUAGUAUUUACUUA

>  <observation-type>
pre-steady-state target cleavage rate

>  <recorded-result>
0.383

$$$$
>  <sequence-string>
UCCUGGAUGAGCUUGCAAAGUAUUUUGUUA

>  <observation-type>
pre-steady-state target cleavage rate

>  <recorded-result>
0.267

$$$$

Q. Quick check: pre-steady-state target cleavage rate of UGCUCCUACAGCUUGCAUAGUAUUUAGUUA ?
A. 1.33

Q. Quick check: pre-steady-state target cleavage rate of UCCACCUUCAGCUUGCAUAGUAUUUAGUAA ?
A. 0.628

Q. Quick check: pre-steady-state target cleavage rate of UCCUCCUUCAGCUUGCAUAGUAUUUAGUAA ?
A. 0.717

Q. Quick check: pre-steady-state target cleavage rate of UCGUCCUUCAGCUUGCAUAGUAUUUAGUUA ?
A. 1.41

Q. Quick check: pre-steady-state target cleavage rate of AGGACCUACAGCUUGAUAGUAUUUAGUUA ?
A. 1.21

----------
- System: MIWI (PIWIL1) piRISC loaded with L1MC piRNA (30 nt);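 note: 1 nM active piRISC with 0.1 nM target library at 33 °C single turnover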
- experimental-protocol: pre-steady-state target cleavage rate (min^-1); MIWI and MILI are mouse PIWI proteins and EfPiwi is from a freshwater sponge; tags in brackets are library labels; higher = faster piRNA-guided slicing of the target;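 note: 1 nM active piRISC with 0.1 nM target library at 33 °C single turnover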
- condition-parameters: guide: L1MC piRNA 5'p-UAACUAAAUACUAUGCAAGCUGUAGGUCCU; auxiliary factor: none (no GTSF1)
The full ranking holds about 8,200 sequences; the median of “pre-steady-state target cleavage rate” is about 0.024, and the highest 2% start at about 1.3. Many of the other results were omitted from the sample, so the highest values are more common in it than they were.
The reader will find reported pre-steady-state target cleavage rate values listed item by item below.
Returns: the value as a bare number; no unit string appended.

Example entries begin here.
>  <sequence-string>
UGGACCUACUGCUUGCUUAGUAUUUAGUUA

>  <pre-steady-state target cleavage rate>
0.0402

$$$$
>  <sequence-string>
AGGACCUACAGCUAGCAUAGUAUUUAGUUA

>  <pre-steady-state target cleavage rate>
0.0412

$$$$
>  <sequence-string>
AGGACCAACAGCUUGCAUAGUAUUUAGUAA

>  <pre-steady-state target cleavage rate>
0.0722

$$$$
>  <sequence-string>
UCCUGGUACAGCUUGCAUAGUAUUUGGUUA

>  <pre-steady-state target cleavage rate>
0.0417

$$$$

Q. Quick check: pre-steady-state target cleavage rate of UCCUGGAACAGCUUGCUAUGUAUUUAGUAA ?
A. 0.00333

Q. Quick check: pre-steady-state target cleavage rate of UCCUGCUACACCAUGCAUAGUAUUUAGUUA ?
A. 0.00793

Q. Quick check: pre-steady-state target cleavage rate of UCCUGCUACAGCUUGCUUAGAAUUUAGUUA ?
A. 0.00845

Q. Quick check: pre-steady-state target cleavage rate of UCCUGGAACAGCUUGCAUAGUAUUCUAGUUA ?
A. 0.0119

Q. Quick check: pre-steady-state target cleavage rate of UGUACCUACAGCUUGCAUAGUAUUUAGUUA ?
A. 0.0875

Q. Quick check: pre-steady-state target cleavage rate of UCCUGGAACAGCUUGCAUAGUAUUUAGUUA [g2:g23:cont:t1A] ?
A. 0.0833
